Where do these numbers come from? They come from PubChem BioAssay (NCATS).

measurement_description: qHTS for differential inhibitors of proliferation of Plasmodium falciparum line 3D7 (AID 1876);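 further: parasite growth measured after three days of culture; 0% = vehicle wells and -100% = reference inhibitor wells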
test_parameters: P. falciparum 3D7 proliferation inhibition; series mostly up to 28.7 µM
Results filed as inconclusive are left out. Activity calls are given as the source filed them. The call rests on the fitted dose curve; in most records, active means well fitted curve in the direction sought with a large enough effect; inconclusive means small, poorly fitted or top-dose-only effect, or another doubt; inactive means no such curve, though single readings can be large or run the other way.
property_measured: outcome

> print(dat)
           chemical.string  property.measured  measured.result
1    CN(N=O)c1ccc(O)c(O)c1            outcome         inactive
2  NCCc1ccc(S(=O)(=O)F)cc1            outcome         inactive
3            NCCCP(=O)(O)O            outcome         inactive

----------
measurement_description: qHTS assay to identify small molecule inhibitors of chordoma cells - UCH-2 (AID 1259356)
test_parameters: UCH-2 chordoma viability, CellTiter-Glo ATP luminescence, 48 h; series mostly up to 46.1 µM
Inconclusive results are not listed. Active and inactive are the calls of the source. The call rests on the fitted dose curve; in most records, active means well fitted cell-killing curve with a large enough effect; inconclusive means small, poorly fitted or top-dose-only effect; inactive means flat fitted curve, though single readings scatter.
One label from this list, please: true (1) for active, false (0) for inactive

Field: example entries. Status: answers known.
compound	class
CCN(CC)CCO[C@H]1CC[C@@]2(C)C(=CC[C@@H]3[C@@H]2CC[C@]2(C)C(=O)CC[C@@H]32)C1	false (0)
CN1c2ccccc2C(NCCCCCCC(=O)O)c2ccc(Cl)cc2S1(=O)=O (centres undefined)	false (0)
C[C@H]1CCC[C@H](O)CCCCCc2cc(O)cc(O)c2C(=O)O1	false (0)
CNC1(c2ccccc2Cl)CCCCC1=O (centres undefined)	false (0)
COc1cc2c(cc1OC)[C@@]13CCN4CC5=CCO[C@H]6CC(=O)N2[C@H]1[C@H]6[C@H]5C[C@H]43	false (0)
[2H]C([2H])([2H])[C@H](N)Cc1ccccc1	false (0)
C[C@@H]([C@H](O)c1ccccc1)N(C)C	false (0)
C[C@@H](Cc1ccccc1)N(C)C	false (0)
CCC(=O)O[C@]1(c2ccccc2)CCN(C)C[C@H]1C	false (0)
CCNCC(O)c1cccc(O)c1 (centres undefined)	false (0)

In: Which outcome was entered for the compound O=c1[nH]c(=O)n(Cl)c(=O)n1Cl in this test?
Out: false (0)

In: Outcome? C[C@]12CCC(=O)C[C@@H]1CC[C@@H]1[C@@H]2CC[C@]2(C)[C@@H](O)CC[C@@H]12
Out: false (0)

In: Which result was noted for this compound in the test: CN1[C@@H]2CC[C@H]1CC(OC1c3ccccc3CCc3ccccc31)C2 (some centres undefined)
Out: false (0)

In: # outcome recorded in this test, key = O=C(O)C(Cl)(Cl)Cl
Out: false (0)

In: // param item: CCC1(C)CC(=O)NC(=O)C1 ; yields the recorded call
Out: false (0)

In: Hey, what did the test say about CC(=O)O[C@H]1C[C@H](O[C@H]2[C@@H](O)C[C@H](O[C@H]3[C@@H](O)C[C@H](OC4CC[C@@]5(C)[C@H](CC[C@@H]6[C@@H]5CC[C@]5(C)[C@@H](C7=CC(=O)OC7)CC[C@]65O)C4)O[C@@H]3C)O[C@@H]2C)O[C@H](C)[C@H]1O[C@@H]1O[C@H](CO)[C@@H](O)[C@H](O)[C@H]1O (some centres undefined) ?
Out: true (1)

In: Each compound tested received a call. Report the one for Clc1ccc(C2(Cn3cncn3)OCCO2)c(Cl)c1 .
Out: false (0)

In: GET /call?item= FC(F)OC(F)(F)C(F)Cl (centres undefined) returns the recorded outcome of this test.
Out: false (0)

In: So what was the verdict on [S]=[Sb](=[S])[S][Sb](=[S])=[S] in this test?
Out: false (0)

In: Any idea what this test logged for CCCCCc1cc(O)c2c(c1)OC(C)(C)[C@@H]1CCC(C)=C[C@@H]21 ?
Out: false (0)

In: Record lookup: outcome of this test for N#CC1(N2CCCCC2)CCCCC1 ?
Out: false (0)
